Hi there, I'd appreciate the recorded CC50 at 1 h for every entry that follows.
- TEST: Cytotoxicity against HEK293T cells incubated for 1 hr by fluorescence based microplate reader assay
- Format: toxicity, cell-based, HEK-293T
- REPORTED CONDITIONS: human
Non-standard residues stand in square brackets, D forms with d. Residues, ends and D or L forms follow the SMILES beside them. Bip = N[C@@H](Cc1ccc(-c2ccccc2)cc1)C(=O)O; pY = N[C@@H](Cc1ccc(OP(=O)(O)O)cc1)C(=O)O
Write the number in µM without appending the unit.

For CC(C)C[C@H](NC(=O)[C@H](CC(C)C)NC(=O)[C@H](Cc1ccc(O)cc1)NC(=O)[C@H](CCCCN)NC(=O)[C@H](CC(C)C)NC(=O)[C@H](CCCNC(=N)N)NC(=O)[C@H](CCCCN)NC(=O)[C@H](Cc1ccc(-c2ccccc2)cc1)NC(=O)[C@H](CC(C)C)NC(=O)CN)C(N)=O (H-GL[Bip]KRLKYLL-NH2) , what is its reported CC50 at 1 h?
50.9

For CC(C)C[C@H](NC(=O)[C@H](CC(C)C)NC(=O)[C@H](Cc1ccc(OP(=O)(O)O)cc1)NC(=O)[C@H](CCCCN)NC(=O)[C@H](Cc1ccc(-c2ccccc2)cc1)NC(=O)[C@H](CCCNC(=N)N)NC(=O)[C@H](CCCCN)NC(=O)[C@H](CC(C)C)NC(=O)[C@H](CC(C)C)NC(=O)CN)C(N)=O (H-GLLKR[Bip]K[pY]LL-NH2) , what is its reported CC50 at 1 h?
110
